- TARGET_ENTITY: HIF1A
- ASSAY_TEXT: HeLa, 100 nM transfected, 24 h, mean of 3
- MEASUREMENT_CONTEXT: ASO
Bases are written 5' to 3'; sugars and linkages follow in the same order, as letters with counts (s phosphorothioate, o phosphodiester; PS: all linkages phosphorothioate). C may stand for cytosine or 5-methylcytosine; the collection does not tell. l = locked nucleic acid (LNA); d = 2'-deoxy (DNA)
Catalogue of caspase activation (% of PBS control) values
Would you mind answering with just the numeric figure?

Some entries whose results are on file:
TGGCAAGCATCCTGTA (sugars l1 d1 l3 d10 l1, PS) = 595
CAAGCATCCTGTA (sugars l1 d2 l1 d6 l3, PS) = 97
ACTGCCTTCTTAC (sugars lldlddddddldl, PS) = 146
GTTACTGCCTTCTTAC (sugars lddldddddddldldl, PS) = 135
GTTACTGCCTTCT (sugars l1 d9 l1 d1 l1, PS) = 104
GCAAGCATCCTGT (sugars l4 d7 l2, PS) = 352

Bench note: what caspase activation (% of PBS control) did GTTACTGCCTTCTTAC (sugars llddlddddddllldl, PS) show?
373

Bench note: what caspase activation (% of PBS control) did GTTACTGCCTTCTTAC (sugars l4 d8 l2 d1 l1, PS) show?
284

Bench note: what caspase activation (% of PBS control) did GTTACTGCCTTCTTAC (sugars ldlldddddddllldl, PS) show?
365

Bench note: what caspase activation (% of PBS control) did GGCAAGCATCCTG (sugars ldldddddddldl, PS) show?
344

Bench note: what caspase activation (% of PBS control) did GTTACTGCCTTCTTAC (sugars ldlddddddddldddl, PS) show?
115

---

- TARGET_ENTITY: HIF1A
- ASSAY_TEXT: HeLa, 100 nM transfected, 24 h, mean of 3
- MEASUREMENT_CONTEXT: ASO
Bases are written 5' to 3'; sugars and linkages follow in the same order, as letters with counts (s phosphorothioate, o phosphodiester; PS: all linkages phosphorothioate). C may stand for cytosine or 5-methylcytosine; the collection does not tell. l = locked nucleic acid (LNA); d = 2'-deoxy (DNA)
Categorized via caspase activation (% of PBS control): zone 1: < 200; zone 2: ≥ 200 and < 300; zone 3: ≥ 300

TTACTGCCTTCTT (sugars ldllddddddldl, PS) = zone 1
TGGCAAGCATCCTGTA (sugars l1 d2 l2 d9 l2, PS) = zone 3
TGGCAAGCATCCTGTA (sugars l1 d1 l1 d9 l4, PS) = zone 3
TGGCAAGCATCCTGTA (sugars ldddldddddddlldl, PS) = zone 1
TTACTGCCTTCTT (sugars lldlddddddldl, PS) = zone 2
GCAAGCATCCTGT (sugars l4 d6 l3, PS) = zone 3
GTTACTGCCTTCTTAC (sugars ldldlddddddldldl, PS) = zone 2
GTTACTGCCTTCT (sugars ldllddddddldl, PS) = zone 1

Quick check: band for TACTGCCTTCTTA (sugars l1 d11 l1, PS)
zone 1

Quick check: band for TGGCAAGCATCCTGTA (sugars lddlldddddddldll, PS)
zone 3

---

- TARGET_ENTITY: HIF1A
- ASSAY_TEXT: HeLa, 100 nM transfected, 24 h, mean of 3
- MEASUREMENT_CONTEXT: ASO
Bases are written 5' to 3'; sugars and linkages follow in the same order, as letters with counts (s phosphorothioate, o phosphodiester; PS: all linkages phosphorothioate). C may stand for cytosine or 5-methylcytosine; the collection does not tell. l = locked nucleic acid (LNA); d = 2'-deoxy (DNA)
Catalogue of caspase activation (% of PBS control) values
Would you mind answering with just the numeric figure?

Some entries whose results are on file:
TGGCAAGCATCCTGTA (sugars l3 d8 l3 d1 l1, PS) = 449
TGGCAAGCATCCTGTA (sugars l5 d6 l1 d2 l2, PS) = 399
GCAAGCATCCTGT (sugars l4 d8 l1, PS) = 344
TGGCAAGCATCCTGTA (sugars lldlddddddddldll, PS) = 502
TGGCAAGCATCCTGTA (sugars lddddddddddldldl, PS) = 228

Bench note: what caspase activation (% of PBS control) did TGGCAAGCATCCTGTA (sugars ldlllddddddldddl, PS) show?
417

Bench note: what caspase activation (% of PBS control) did GTTACTGCCTTCTTAC (sugars ldllldddddddlldl, PS) show?
470

Bench note: what caspase activation (% of PBS control) did TGGCAAGCATCCTGTA (sugars l3 d10 l1 d1 l1, PS) show?
251
